conditions: buffer; pH 7.4; 200.0 µM
measurement_type: solubility kinetic (mg/mL)
Reply with just the number (in mg/mL).

Consider the worked cases shown below.
What does the data say about its solubility kinetic? Entry: O=[N+]([O-])c1ccc(CN2CCN(c3ccccc3Cl)CC2)o1
0.0318

Look up solubility kinetic: CCOc1ccc(N=Cc2c(O)n(Cc3ccccc3)c(=S)[nH]c2=O)cc1
0.0005

Continuing:
Param item = Nc1cc(C(=O)OCC(=O)Nc2cccc(S(=O)(=O)N3CCOCC3)c2)ccc1Cl ; retrieve measured solubility kinetic.
0.0244

Given the compound C/C=C/C(=O)N(CC)c1ccccc1C , what is its reported solubility kinetic?
0.0177

Any idea what its solubility kinetic is? The compound is COC(=O)c1sc(-c2ccc(Cl)cc2)cc1NC(=O)COCC(=O)O
0.0281

---

conditions: buffer; pH 7.4; 200.0 µM
Parameter: solubility kinetic. Scope: all listed entries.
// return numeric value only (unit: µg/mL, not printed)

I have this molecule here, Cc1cc(N/C=C(\C#N)S(=O)(=O)c2ccc(Cl)cc2)nc(C)n1 , and I need its recorded solubility kinetic.
12.9

# lookup: solubility kinetic of Cc1ccc(CNC(=O)CN2C(=O)c3ccccc3S2(=O)=O)cc1
12.5

Please report the recorded solubility kinetic for O=C(COC(=O)c1cccc(Cl)c1Cl)NC1CCCC1 .
12.8

// solubility kinetic lookup, key: CC(C)(C)NC(=O)[C@H]1CC[C@H]2[C@@H]3CC[C@H]4NC(=O)C=C[C@]4(C)[C@H]3CC[C@]12C
52.8

Fill blank: measured solubility kinetic of the molecule CC1=CC2=NC(=O)/C(=C/c3cccn3Cc3ccccc3)C(=N)N2O1 is ____.
2.7

Others:
Field request: solubility kinetic | item: Cc1ccccc1OCCCC(=O)NC1CCCCC1
3.7

Entry under review: CCOC(=O)C1=C(COC(=O)c2cccc(Cl)c2)NC(=O)NC1C (configuration not stated) . Reported solubility kinetic?
46.2

Look up solubility kinetic for this molecule: CCC(C)NC(=O)CN1C(=O)c2cccc3cccc1c23 (configuration not stated)
6.3

---

conditions: buffer; pH 7.4; 200.0 µM
Output 1 for solubility kinetic not less than 30 µg/mL; output 0 otherwise.

The following compounds have reported results that may help.
Determine whether measured solubility kinetic meets or exceeds 30 µg/mL for CCCNC(=S)N1CCC(NC(=O)c2ccc(C)cc2)CC1
0

Reported solubility kinetic at or above 30 µg/mL? COC(CNc1ncnc2c1cnn2C)OC
1

Does the reported solubility kinetic for O=C(Nc1ccc(Cl)cc1Cl)c1cc2ccccc2o1 fall at or above the 30 µg/mL mark?
0

Others:
Kindly determine if solubility kinetic recorded for Cc1cccc(NC(=O)Nc2ccc([N+](=O)[O-])cc2)n1 is above or exactly 30 µg/mL.
0

Could you tell me if the measured solubility kinetic of O=C(Nc1ccc(O)cc1)/C(=C/c1ccco1)NC(=O)c1ccccc1 reaches 30 µg/mL or more?
1

Check if solubility kinetic >= 30 µg/mL (inclusive). Item: Cc1ccc2nc(NC(=O)c3ccc(Br)o3)sc2c1
0

Evaluate Cc1ccccc1C(=O)NCC(C)NC(=O)c1ccccc1C (stereo not given) : solubility kinetic at minimum 30 µg/mL?
1

---

settings: buffer; pH 7.4; 200.0 µM
Decision: solubility kinetic compared against 20 µg/mL; not below it gives Met, below it gives Not met.

Is it the case that Cc1nc2ccccc2c2ncccc12 has solubility kinetic reaching or exceeding 20 µg/mL?
Met

***
Could you tell me if the measured solubility kinetic of O=C(CN1CCCCCC1)Nc1cccc([N+](=O)[O-])c1 reaches 20 µg/mL or more?
Met

Does N#CCOC(=O)/C=C/c1ccc2c(c1)OCO2 have a reported solubility kinetic of at least 20 µg/mL?
Not met

Reported solubility kinetic reaches at least 20 µg/mL for CC(=O)Nc1cc[n+](C(C)C(=O)c2ccccc2)cc1.[Cl-] (stereo not given) ?
Met

Hi, just wondering whether CC(C)=CCN1CCN(Cc2cccc3nccnc23)CC1CCO (stereo not given) shows solubility kinetic of 20 µg/mL or higher.
Met

Has CC(=O)Nc1c(-c2ccccc2)nc2ccc(Cl)cn12 a recorded solubility kinetic greater than or equal to 20 µg/mL?
Met

# check: solubility kinetic of CC(C(=O)N1CCCC1)N1CCN(c2ccccc2O)CC1 (stereo not given) is greater than or equal to 20 µg/mL
Met

Check if solubility kinetic >= 20 µg/mL (inclusive). Item: Cc1ccc(C(=O)NCC(=O)O)o1
Met

---

conditions: buffer; pH 7.4; 200.0 µM
Listing of recorded solubility kinetic by entry.
Give the value in µg/mL but do not write µg/mL after it.

# query: solubility kinetic of entry COc1ccccc1/C=C/c1nc(C#N)c(N(C)C)o1
0.4

Query: solubility kinetic; subject: Cc1ccccc1NC(=O)c1ccccn1
28.9

Reported solubility kinetic for C=C(C)C(=O)Nc1ccc2c(c1)OCCOCCOCCO2 : what is it?
35.2

Quick check: solubility kinetic of CCc1c(C)sc(NC(=O)c2cc(C(C)C)on2)c1C#N ?
3.4

# solubility kinetic lookup, item CCC1(CC)Cc2ccccc2-c2nc(CCl)[nH]c(=O)c21
1.2

Which measured solubility kinetic value corresponds to Cn1c(N)c(C(=O)Nc2ccccc2F)sc1=S ?
4.4

Which solubility kinetic is listed for O=C(CCN1CCN(c2ccccc2F)CC1)Nc1ccc(F)cc1 ?
10.4

Please give the measured solubility kinetic for this compound: O=C(COC(=O)/C=C/c1ccc(Cl)cc1)NC1CCCC1
3.5

Can you share its solubility kinetic? I mean this compound: Nc1ccc2nc(SCC(=O)c3ccccc3)sc2c1
1.8

Which measured solubility kinetic value corresponds to Cc1noc(C)c1COc1cccc(C(=O)OC(C)C#N)c1 (centres undefined) ?
43.2

Continuing:
Recorded solubility kinetic for COc1ccc2nc(NC(=O)c3ccc([N+](=O)[O-])o3)sc2c1 , please?
2

Item Cc1c(C=O)c2ccccc2n1Cc1ccccc1F has what recorded solubility kinetic?
20.4

---

settings: buffer; pH 7.4; 200.0 µM
Hi, to clarify the labels: T covers solubility kinetic from 20 µg/mL upward, F covers anything below 20 µg/mL.

Examples with answers:
Hello, I need to know if CN1/C(=C\C=O)C(C)(C)c2ccccc21 has measured solubility kinetic not below 20 µg/mL. Thanks!
T

# bool: solubility kinetic of CC(C)(C)c1ccc(C(=O)/C(C#N)=C/c2cccs2)cc1 >= 20 µg/mL
F

New cases:
Does the reported solubility kinetic for Cc1ccc(N2C(=O)C3C4C=CC(CC4)C3C2=O)c([N+](=O)[O-])c1 (configuration not stated) fall at or above the 20 µg/mL mark?
F

Confirm if solubility kinetic reported for the compound Cc1ccc(S(=O)(=O)/N=C(/Nc2ccccc2C)c2ccccc2)cc1 is 20 µg/mL or above.
T

Evaluate COc1ccc(OC)c(C(=O)COC(=O)c2cccnc2Cl)c1 : solubility kinetic at minimum 20 µg/mL?
T

Is the recorded value of solubility kinetic equal to or greater than 20 µg/mL for this compound? O=C(Nc1nccs1)c1ccc(CSc2ccccc2)o1
F

Does the reported solubility kinetic for COc1ccccc1CNC(=O)CCc1cn(C)c2ccccc12 fall at or above the 20 µg/mL mark?
T

Could you please find out whether Cc1c(C=O)c2ccccc2n1Cc1ccccc1 has solubility kinetic that meets 20 µg/mL or exceeds it?
F

Is it the case that Cc1cccc(CS(=O)(=O)c2ncc(CO)n2C)c1 has solubility kinetic reaching or exceeding 20 µg/mL?
T

Is it the case that Fc1cccc(NC(=S)NC2CCCCCCC2)c1 has solubility kinetic reaching or exceeding 20 µg/mL?
F

Test whether the compound O=C(NC12CC3CC(CC(C3)C1)C2)c1cc([N+](=O)[O-])ccc1Cl records solubility kinetic of 20 µg/mL or higher.
F

Reported solubility kinetic reaches at least 20 µg/mL for Cc1cnc(NC(=O)Cc2cccs2)s1 ?
T

---

Measured solubility kinetic accompanies every entry in the list below.
conditions: buffer; pH 7.4; 200.0 µM

Consider the following illustrative entries.
Fill in: solubility kinetic of c1ccc(Oc2nc(-c3ccccn3)nc3ccccc23)cc1 is ___
43.1 µg/mL

Look up solubility kinetic: Cc1ccc(NC(=O)C(=O)NCCCN2CC(C(=O)O)CC2=O)cc1 (stereo unspecified)
> 52.1 µg/mL

Entry under review: COc1cc(OC)cc(C(=O)NCC(=O)OC(C)C(=O)NC(C)C2CC3CCC2C3)c1 (stereo unspecified) . Reported solubility kinetic?
> 64.9 µg/mL

Query: solubility kinetic; subject: CCN1CCN(C(=O)c2cc(=O)c3cc(C)ccc3o2)CC1
> 45.1 µg/mL

Would you mind telling me what solubility kinetic value was observed for Cc1ccc(SCCN2CCN(C)CC2)cc1.Cl ?
35.5 µg/mL

With those in mind, consider the next molecule.
Quick check: solubility kinetic of O=[N+]([O-])c1ccc(Sc2n[nH]c(-c3ccncc3)n2)nc1 ?
> 45 µg/mL

---

details: buffer; pH 7.4; 200.0 µM
Quick rule: solubility kinetic of at least 30 µg/mL means TRUE, below that means FALSE.

Tell me whether solubility kinetic is at least 30 µg/mL here: Nc1nc(NCCc2ccccc2)nc(NCCO)c1[N+](=O)[O-]
TRUE

More entries:
Can CCOC(=O)C(CC)Sc1cc(C)nc2ccc(OC)cc12 (stereo unspecified) be said to have solubility kinetic at or above 30 µg/mL?
TRUE

Determine whether this compound has solubility kinetic no lower than 30 µg/mL: Cl.Fc1ccc(-c2ccc(CNCc3ccccn3)o2)cc1
TRUE

Quick check: does CC(C)C(=O)Nc1ccc2oc(=O)ccc2c1 have solubility kinetic greater than or equal to 30 µg/mL?
TRUE

Has COc1cc2ccccc2cc1C(=O)N1CCN(c2ccccn2)CC1 a recorded solubility kinetic greater than or equal to 30 µg/mL?
TRUE

Say whether O=Cc1ccc(OCC(=O)Nc2ccccc2-c2ccccc2)cc1 shows solubility kinetic of 30 µg/mL or more.
FALSE
